// ETB (rabbit pulmonary artery) (Oryctolagus cuniculus, UniProt Q9N0W7) Kb records
Peptide text beside a SMILES is read from it.

compound	Kb
CC[C@H](C)[C@H](NC(=O)[C@H](CC(=O)O)NC(=O)[C@H](CCC(=O)O)NC(=O)[C@H](NC(C)=O)C1c2ccccc2CCc2ccccc21)C(=O)N[C@H](C(=O)N[C@@H](Cc1c[nH]c2ccccc12)C(=O)O)[C@@H](C)CC [Example 8, Ac-D-Bhg-Glu-Asp-Ile-Ile-Trp] (HELM PEPTIDE1{[ac].[O=C([C@H](N[*:1])C1c2ccccc2CCc2ccccc21)[*:2]].E.D.I.I.W}$$$$V2.0)	100 nM

Each compound below has a recorded value; state its Kb.
1. CC[C@H](C)[C@H](NC(=O)[C@H](CC(=O)O)NC(=O)[C@H](CC(C)C)NC(=O)[C@H](NC(C)=O)C1c2ccccc2CCc2ccccc21)C(=O)N[C@H](C(=O)N[C@@H](Cc1c[nH]c2ccccc12)C(=O)O)[C@@H](C)CC [Example 1, Ac-D-Bhg-Leu-Asp-Ile-Ile-Trp] (HELM PEPTIDE1{[ac].[O=C([C@H](N[*:1])C1c2ccccc2CCc2ccccc21)[*:2]].L.D.I.I.W}$$$$V2.0)
2. CC[C@H](C)[C@H](NC(=O)[C@H](CC(=O)O)NC(=O)[C@H](CC(C)C)NC(=O)[C@H](NC(C)=O)C1c2ccccc2C=Cc2ccccc21)C(=O)N[C@H](C(=O)N[C@@H](Cc1c[nH]c2ccccc12)C(=O)O)[C@@H](C)CC [Example 6, Ac-D-Bheg-Leu-Asp-Ile-Ile-Trp] (HELM PEPTIDE1{[ac].[O=C([C@H](N[*:1])C1c2ccccc2C=Cc2ccccc21)[*:2]].L.D.I.I.W}$$$$V2.0)

1: 79.4 nM; 2: 39.8 nM

* * *

Peptide text beside a SMILES is read from it.
Record set of pIC50 for target or system endothelin receptor (ETB), rat cerebellar membranes (Rattus norvegicus, UniProt P21451).
One number for each entry, as −log10 of the molar value.

For each of the molecules below, note its pIC50.
1. CC[C@H](C)[C@H](NC(=O)[C@@H](NC(=O)[C@@H](CC(=O)O)NC(=O)[C@H](CC(C)C)NC(=O)[C@H](NC(C)=O)C1c2ccccc2CCc2ccccc21)[C@@H](C)CC)C(=O)N[C@@H](Cc1c[nH]c2ccccc12)C(=O)O [Example 16, Ac-D-Bhg-Leu-D-Asp-Ile-Ile-Trp] (HELM PEPTIDE1{[ac].[O=C([C@H](N[*:1])C1c2ccccc2CCc2ccccc21)[*:2]].L.[dD].I.I.W}$$$$V2.0)
2. CC[C@H](C)[C@H](NC(=O)[C@H](CC(=O)O)NC(=O)[C@H](CC(C)C)NC(=O)[C@@H](NC(C)=O)C1c2ccccc2Oc2ccccc21)C(=O)N[C@H](C(=O)N[C@@H](Cc1c[nH]c2ccccc12)C(=O)O)[C@@H](C)CC [Example 9, Ac-L-Oxn-Leu-Asp-Ile-Ile-Trp] (HELM PEPTIDE1{[ac].[O=C([C@@H](N[*:1])C1c2ccccc2Oc2ccccc21)[*:2]].L.D.I.I.W}$$$$V2.0)
3. CC[C@H](C)[C@H](NC(=O)[C@H](CC(=O)O)NC(=O)[C@H](CCCN=C(N)N)NC(=O)[C@H](NC(C)=O)C1c2ccccc2CCc2ccccc21)C(=O)N[C@H](C(=O)N[C@@H](Cc1c[nH]c2ccccc12)C(=O)O)[C@@H](C)CC [Example 14, Ac-D-Bhg-Arg-ASp-Ile-Ile-Trp] (HELM PEPTIDE1{[ac].[O=C([C@H](N[*:1])C1c2ccccc2CCc2ccccc21)[*:2]].R.D.I.I.W}$$$$V2.0)

6.40
6.03
7.40
